Test system: human IgG antibodies in human serum samples
method: EIA of human antibody reactivities to overlapping synthetic peptides of TTV ORF1 and ORF2 (Tables 2 and 3)
Type: binding
experimental-conditions: human serum sample 2, negative for TTV DNA by PCR; serum diluted 1:100; OD over 0.500 considered positive
Label scheme for optical density (OD) at 405 nm: lower than 0.09 OD is NO, 0.09 OD and above is YES.

A selection of reference data follows.
TATTTTYAYPGTNRPPV (Peptide Immunogen) [peptide 35, overlapping synthetic peptide of TTV ORF1] :: YES
PDEKSQREILLNKIASY (Peptide Immunogen) [compound 29, overlapping synthetic peptide of TTV ORF1] :: YES
21: overlapping synthetic peptide of TTV ORF1 (TATTTTYAYPGTNRP) [compound 21] :: NO
QKESLLFPPVKLLRRVP (Peptide Immunogen) [compound 69, overlapping synthetic peptide of TTV ORF1] :: YES
2: overlapping synthetic peptide of TTV ORF1 (YAYPGTNRPPV) [compound 2] :: NO

Q: Exam item: decide whether the reported optical density (OD) at 405 nm for peptide 1: overlapping synthetic peptide of TTV ORF1 (TATTTTYAYPGTNRPPV) is at least 0.09 OD.
Result: NO
